The measurements presented in this section are drawn from the supplement of paper PMC11865577.

System: TO-3-N3 (biotin conjugate)
Assay: pull-down binding Z-score (relative to library population); higher = stronger binding
Settings: RNA library: Library-2

[
  {
    "PRIMARY SEQUENCE": "UGGGUUGGGUUGGGUUGGGUUGGGUUGGGU [G4_r(UGGGU)6]",
    "pull-down binding Z-score": 8.7
  },
  {
    "PRIMARY SEQUENCE": "UGUAUGUGUAAAUACAUAUCCACACA [hsa-mir-4789]",
    "pull-down binding Z-score": 0.0268
  },
  {
    "PRIMARY SEQUENCE": "GGUAAAAUUGUUAAUAAUUGGUUGAAGCAGUUAAUUAAAGUUACACUUGUGUUCCUUUUUGUUGCUGCUAUUUUCUAUUUAAUAACACC [DMSMaPseq_invitro_SARS-CoV-2_Motif_156]",
    "pull-down binding Z-score": -0.485
  },
  {
    "PRIMARY SEQUENCE": "GGAGAUGAGGCGUUGCCUCCUCC [IAV_invivo_PA_3_Motif_24+IAV_invivo_PA_3_Motif_24]",
    "pull-down binding Z-score": -0.646
  },
  {
    "PRIMARY SEQUENCE": "AAGACUCAUCUCUAUGAUGGGUUUU",
    "pull-down binding Z-score": -0.938
  },
  {
    "PRIMARY SEQUENCE": "AAUGCAGUCUGCACCCUGCUGCAUU [hsa-mir-6504]",
    "pull-down binding Z-score": 0.237
  },
  {
    "PRIMARY SEQUENCE": "GCAGAGACAGAAGAAACAGCAAACUGUGACUCUUCUUCCUGC",
    "pull-down binding Z-score": -0.211
  },
  {
    "PRIMARY SEQUENCE": "GGGGCUGAGAAACCAAAGUUUC [IAV_invivo_PA_3_Motif_3+IAV_invivo_PA_3_Motif_3]",
    "pull-down binding Z-score": 0.484
  },
  {
    "PRIMARY SEQUENCE": "GUGCACUUGACCCUCUCUCAGAAACAAAGUGUAC [SHAPE_invivo_SARS-CoV-2_Motif_422]",
    "pull-down binding Z-score": 0.278
  },
  {
    "PRIMARY SEQUENCE": "GGUGGUUGUGGGAGUCACU [hsa-mir-4418]",
    "pull-down binding Z-score": 1.58
  },
  {
    "PRIMARY SEQUENCE": "GAGUGAAUC [hsa-mir-3610]",
    "pull-down binding Z-score": -0.31
  },
  {
    "PRIMARY SEQUENCE": "AAGACACUAUCUUACAACAACAGGGCUCUU [hsa-mir-550b-1]",
    "pull-down binding Z-score": 1.17
  },
  {
    "PRIMARY SEQUENCE": "UGUACUUGGAUUGGCUGCAAUCAUGCAAUUGUUUUUCAGCUAUUUUGCAGUACA [SHAPE_invivo_SARS-CoV-2_Motif_149]",
    "pull-down binding Z-score": -0.482
  },
  {
    "PRIMARY SEQUENCE": "UGAAAGGUUUUUUCUCUCA [hsa-mir-4797]",
    "pull-down binding Z-score": -0.332
  },
  {
    "PRIMARY SEQUENCE": "ACAGGUUUUAUCGAACCUGU [IAV_invivo_PB1_2_Motif_25+IAV_invivo_PB1_2_Motif_25]",
    "pull-down binding Z-score": -0.147
  },
  {
    "PRIMARY SEQUENCE": "GGUUGUUAGAUAGACAACU [hsa-mir-4510]",
    "pull-down binding Z-score": 0.632
  },
  {
    "PRIMARY SEQUENCE": "CCGGCCCGUUAGUUGCCCGGGCCCG [hsa-mir-3181]",
    "pull-down binding Z-score": -0.57
  },
  {
    "PRIMARY SEQUENCE": "ACUUUCUGUUUGAAAGAAAACAAAGU [hsa-mir-519e]",
    "pull-down binding Z-score": -0.798
  },
  {
    "PRIMARY SEQUENCE": "CUGUGCAGGGCCAACUGUGCACAC [hsa-mir-3681]",
    "pull-down binding Z-score": 0.827
  },
  {
    "PRIMARY SEQUENCE": "UAAAGCCACGUAUAAACCAAAUACCUGGUGUAUACGUUGUCUUUG",
    "pull-down binding Z-score": -0.523
  },
  {
    "PRIMARY SEQUENCE": "GGGAAUAUAAUCUC [IAV_invivo_NA_6_Motif_2+IAV_invivo_NA_6_Motif_2]",
    "pull-down binding Z-score": 1.52
  },
  {
    "PRIMARY SEQUENCE": "GACAUGUUCCUCGGAACUUGUC",
    "pull-down binding Z-score": -0.926
  },
  {
    "PRIMARY SEQUENCE": "CUUUGUAUUGCAUAGACGGUGCUUUACUUACAAAGUCCUCAGAAUACAAAG",
    "pull-down binding Z-score": -0.811
  },
  {
    "PRIMARY SEQUENCE": "CCCUUGUCUUCCCAGAG [hsa-mir-4739]",
    "pull-down binding Z-score": -0.28
  },
  {
    "PRIMARY SEQUENCE": "AUCAGGCAGUUUCCUG [hsa-mir-4289]",
    "pull-down binding Z-score": -0.305
  },
  {
    "PRIMARY SEQUENCE": "CGCGCCCGGCCUAACUUUUAAGAAACGUCGGCCCGGGAGCG [hsa-mir-5095]",
    "pull-down binding Z-score": 1.24
  },
  {
    "PRIMARY SEQUENCE": "GUGAGGCAGGGAGCUGAGCUCAC [hsa-mir-3622a]",
    "pull-down binding Z-score": 0.401
  },
  {
    "PRIMARY SEQUENCE": "GGCUCUGGGUCCUGCUCCUUAGAGCA [hsa-mir-2467]",
    "pull-down binding Z-score": 0.259
  },
  {
    "PRIMARY SEQUENCE": "GGCGCACAGCAGACCCUGCAAUCAUGCC [hsa-mir-3164]",
    "pull-down binding Z-score": 0.966
  }
]
